B1: ZNF449 (parent)
chain: HTGERPYECTVCKKRFTRRSHLIG

- Variants of: B1
- PROTOCOL SUMMARY: protein stability index of a GFP-peptide fusion (GPS, HEK-293T) (PSI 1-6); higher = more stable;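 further: lentivirally expressed fusions sorted by FACS into six bins by GFP to DsRed ratio, PSI derived from sequencing read proportions per bin multiplied by bin number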
- CONDITION SET: c terminus: a fixed tail appended
Assign protein stability index to each entry below.
Output spec: single numeric token, no unit.

Enquiry: Write down protein stability index measured for item R18Q
Return: 1.81

Enquiry: Write down protein stability index measured for item G24Y
Return: 2.9

Enquiry: Write down protein stability index measured for item H1W
Return: 2

Enquiry: Write down protein stability index measured for item H1M
Return: 2.96

Enquiry: Write down protein stability index measured for item T17E
Return: 2.63

Enquiry: Write down protein stability index measured for item E8F
Return: 1.84

Enquiry: Write down protein stability index measured for item T2Q
Return: 2.24

Enquiry: Write down protein stability index measured for item Y7T
Return: 2.71

Enquiry: Write down protein stability index measured for item R18W
Return: 2.33

Enquiry: Write down protein stability index measured for item T17C
Return: 4.7

Enquiry: Write down protein stability index measured for item G24S
Return: 2.61

Values were extracted from the supplement of paper PMC10567573.
